- measured-target: T1, hLRRC33-proTGFβ1 (human, UniProt Q86YC3 19-650; P01137 30-390, limits assumed)
- T1 construct: LLC as m1; Same id used for the cell-surface complex in reporter assays; also called human LRRC33-proTGFβ1 complex; LRRC33-ProTGFb1
- T1 sequence (Q86YC3 19-650 limits assumed, chain 1 of 2): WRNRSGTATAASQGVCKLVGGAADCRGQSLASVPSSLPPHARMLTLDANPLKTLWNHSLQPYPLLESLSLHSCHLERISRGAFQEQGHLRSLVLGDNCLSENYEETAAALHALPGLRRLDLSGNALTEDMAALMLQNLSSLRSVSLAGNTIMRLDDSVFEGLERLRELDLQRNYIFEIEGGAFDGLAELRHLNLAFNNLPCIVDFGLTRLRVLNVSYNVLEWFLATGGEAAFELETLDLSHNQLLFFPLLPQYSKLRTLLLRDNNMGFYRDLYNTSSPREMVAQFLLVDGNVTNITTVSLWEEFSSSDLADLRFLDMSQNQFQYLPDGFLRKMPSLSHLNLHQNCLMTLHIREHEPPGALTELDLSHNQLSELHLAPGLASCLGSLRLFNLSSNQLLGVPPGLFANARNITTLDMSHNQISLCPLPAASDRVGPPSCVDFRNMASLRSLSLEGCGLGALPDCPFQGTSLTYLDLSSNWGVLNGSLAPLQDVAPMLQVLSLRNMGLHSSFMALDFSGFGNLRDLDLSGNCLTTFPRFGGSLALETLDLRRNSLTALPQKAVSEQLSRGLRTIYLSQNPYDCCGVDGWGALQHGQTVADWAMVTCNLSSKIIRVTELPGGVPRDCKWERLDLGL
- T1 sequence (P01137 30-390 limits assumed, chain 2 of 2): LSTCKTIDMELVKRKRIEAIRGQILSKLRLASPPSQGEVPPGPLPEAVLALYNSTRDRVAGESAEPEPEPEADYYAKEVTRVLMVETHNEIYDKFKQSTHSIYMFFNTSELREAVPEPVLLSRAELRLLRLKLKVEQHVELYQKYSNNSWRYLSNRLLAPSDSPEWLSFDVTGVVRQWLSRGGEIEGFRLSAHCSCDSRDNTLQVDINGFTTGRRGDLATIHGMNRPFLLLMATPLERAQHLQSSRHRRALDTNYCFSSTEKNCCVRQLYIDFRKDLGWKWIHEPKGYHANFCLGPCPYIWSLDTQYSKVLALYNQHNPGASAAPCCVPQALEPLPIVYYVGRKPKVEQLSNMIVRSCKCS
- assay: BLI (Octet)
pKd: −log10 of the molar value.
Measured pKd by item

binder: Ab22 (antibody, V domains shown) VH: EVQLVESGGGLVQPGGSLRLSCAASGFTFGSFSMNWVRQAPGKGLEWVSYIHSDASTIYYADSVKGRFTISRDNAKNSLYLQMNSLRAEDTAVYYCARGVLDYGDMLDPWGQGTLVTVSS VL: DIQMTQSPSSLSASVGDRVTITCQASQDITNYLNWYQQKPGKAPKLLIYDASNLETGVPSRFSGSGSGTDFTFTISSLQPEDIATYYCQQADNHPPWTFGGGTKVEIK
pKd: 9.38

binder: Ab31 (antibody, V domains shown) VH: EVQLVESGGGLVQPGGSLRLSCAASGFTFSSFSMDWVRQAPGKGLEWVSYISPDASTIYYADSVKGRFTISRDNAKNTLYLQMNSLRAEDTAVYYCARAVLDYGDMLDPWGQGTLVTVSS VL: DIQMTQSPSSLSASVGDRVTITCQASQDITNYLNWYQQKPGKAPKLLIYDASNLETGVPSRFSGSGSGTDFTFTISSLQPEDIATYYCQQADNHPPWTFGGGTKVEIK
pKd: 9.39

binder: Ab24 (antibody, V domains shown) VH: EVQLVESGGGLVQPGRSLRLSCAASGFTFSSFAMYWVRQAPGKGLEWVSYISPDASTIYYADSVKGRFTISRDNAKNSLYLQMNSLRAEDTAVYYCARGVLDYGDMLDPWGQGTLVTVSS VL: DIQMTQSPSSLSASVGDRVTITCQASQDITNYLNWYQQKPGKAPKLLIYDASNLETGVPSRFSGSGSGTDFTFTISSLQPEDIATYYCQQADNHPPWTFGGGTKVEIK
pKd: 9.39

binder: Ab28 (antibody, V domains shown) VH: EVQLVESGGGLVQPGGSLRLSCAASGFTFSSFSMDWVRQAPGKGLEWVSYISPDASTIYYADSVKGRFTISRDNAKNSLYLQMNSLRAEDTAVYYCVRGVLDYGDMLDPWGQGTLVTVSS VL: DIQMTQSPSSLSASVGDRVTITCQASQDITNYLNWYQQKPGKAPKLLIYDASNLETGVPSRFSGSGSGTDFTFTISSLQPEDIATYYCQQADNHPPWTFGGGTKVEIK
pKd: 9.39

binder: Ab25 (antibody, V domains shown) VH: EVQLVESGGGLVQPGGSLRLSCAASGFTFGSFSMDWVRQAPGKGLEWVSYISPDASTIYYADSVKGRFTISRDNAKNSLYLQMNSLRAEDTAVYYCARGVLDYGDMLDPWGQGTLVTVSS VL: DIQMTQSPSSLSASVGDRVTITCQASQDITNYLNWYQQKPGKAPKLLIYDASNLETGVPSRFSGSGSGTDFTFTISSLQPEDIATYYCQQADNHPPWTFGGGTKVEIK
pKd: 9.39

binder: Ab21 (antibody, V domains shown) VH: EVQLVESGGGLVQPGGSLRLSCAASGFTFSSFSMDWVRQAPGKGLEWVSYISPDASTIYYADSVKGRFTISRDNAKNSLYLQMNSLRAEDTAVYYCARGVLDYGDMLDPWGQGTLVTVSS VL: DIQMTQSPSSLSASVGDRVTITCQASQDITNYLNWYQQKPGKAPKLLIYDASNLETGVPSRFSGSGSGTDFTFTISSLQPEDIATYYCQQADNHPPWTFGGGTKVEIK
pKd: 9.34
